Attribute: PBM binding z-score
Tested on: RARa homodimer (NR concentration 270 nM)
protocol.description: PBM binding z-score (relative to random genomic background probes); higher = stronger binding; sequences stand for … in GC…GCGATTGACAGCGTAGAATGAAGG
measured.attribute: PBM binding z-score

> print(dat)
                       input.sequence   measured.attribute     val
1  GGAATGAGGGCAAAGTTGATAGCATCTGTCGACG  PBM binding z-score   0.171
2  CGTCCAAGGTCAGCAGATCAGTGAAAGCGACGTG  PBM binding z-score   0.548
3  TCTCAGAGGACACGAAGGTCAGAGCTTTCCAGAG  PBM binding z-score  -0.195
4  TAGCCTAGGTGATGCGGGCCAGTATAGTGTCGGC  PBM binding z-score  -0.718
5  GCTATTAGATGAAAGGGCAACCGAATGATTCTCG  PBM binding z-score    0.15
6  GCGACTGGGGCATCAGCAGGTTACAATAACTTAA  PBM binding z-score   -0.54
